Assay: melting temperature; fluorescence melt of hairpins on a sequencing array, two-state fit, raised by 9.35 °C to match UV melts
Details: sodium 0.088 M
OBSERVABLE: Tm (°C)

SEQUENCE STRING: GAGGAGGAAACTCCTC ((((((....))))))
VALUE OBSERVED: 55.9
//
SEQUENCE STRING: GGACGAGCGAAAGCTTCC (((..(((....))))))
VALUE OBSERVED: 29.5
//
SEQUENCE STRING: GCCGTCGAAAGACAGGC ((((((....))).)))
VALUE OBSERVED: 65.2
//
SEQUENCE STRING: GCGACCCCGAAAGGGCGC (((..(((....))))))
VALUE OBSERVED: 67.7
//
SEQUENCE STRING: GCGTCCGAAAGGAGGCGC ((((((....)))..)))
VALUE OBSERVED: 67.5
//
SEQUENCE STRING: GACTTAGGAAACTAAGCC (.(((((....))))).)
VALUE OBSERVED: 34.2
//
SEQUENCE STRING: GGTACTCCGAAAGGAACC (((..(((....))))))
VALUE OBSERVED: 25.4
//
SEQUENCE STRING: GTCGCGGGAAACCGCAAC ((.((((....)))).))
VALUE OBSERVED: 44.1
//
SEQUENCE STRING: GGACGACCGAAAGGTTCC (((..(((....))))))
VALUE OBSERVED: 31.3
//
SEQUENCE STRING: GGGTGAGGAAACCCACCC (((((.(....).)))))
VALUE OBSERVED: 51.7
//
SEQUENCE STRING: GTTCTGCCGAAAGGCAAC (((..(((....))))))
VALUE OBSERVED: 25.1
//
SEQUENCE STRING: GCGTTCGAAAGAACCCGC ((((((....)))..)))
VALUE OBSERVED: 40.8

----------
Experiment: melting temperature; fluorescence melt of hairpins on a sequencing array, two-state fit, raised by 9.35 °C to match UV melts
Details: sodium 0.088 M
Label MET when Tm < 50 °C; otherwise NOT MET.

SEQUENCE STRING: GTCGAATCGAAAGATGAC (((..(((....))))))
QUALITATIVE LABEL: MET
//
SEQUENCE STRING: GGAAGAGGAAACTCTTCC (((((((....)))))))
QUALITATIVE LABEL: NOT MET
//
SEQUENCE STRING: GTCATCGAAAGATTCGAC ((((((....)))..)))
QUALITATIVE LABEL: MET
//
SEQUENCE STRING: CGCGGAATTCTCCGCG ((((((....))))))
QUALITATIVE LABEL: NOT MET
//
SEQUENCE STRING: GATTGAGGAAACCCAATC (((((.(....).)))))
QUALITATIVE LABEL: MET
//
SEQUENCE STRING: GCAATTCGAAAGAATGC (((.(((....))))))
QUALITATIVE LABEL: MET

src = the array DNA melting data of Ke et al. (doi:10.1101/2024.01.08.574731)
